- target-or-test-system: bovine eNOS (Bos taurus, UniProt P29473)
- Construct: made in house; host or cells: E. coli (plasmid Bov-eNOSpCW)
- method: NOS enzyme inhibitory assay (hemoglobin capture), eNOS
- Assay type: biochemical
- conditions: Table 1b; read-out: Ki eNOS
Below, each entry is listed alongside its reported pKi.
# pKi: negative log10 of molar concentration; output just the value

INPUT: Name the reported pKi value associated with the molecule Cc1cc(N)nc(C[C@H]2CNC[C@H]2OCC(=O)NCCc2cccc(F)c2)c1 (racemic) [Compound P-79]
OUTPUT: 3.90

INPUT: Name the reported pKi value associated with the molecule Cc1cc(N)nc(C[C@H]2CNC[C@@H]2OCCN)c1.Cl.Cl.Cl (racemic) [Compound P-81]
OUTPUT: 5.82

INPUT: Name the reported pKi value associated with the molecule Cc1cc(N)nc(CC2CNCC2NCCNCc2ccc(C(F)(F)F)cc2)c1.Cl.Cl.Cl.Cl (racemic) [Compound P-56]
OUTPUT: 4.21

INPUT: Name the reported pKi value associated with the molecule Cc1cc(N)nc(CC2CNCC2NCCNCc2ccc(Cl)c(Cl)c2)c1.Cl.Cl.Cl.Cl (racemic) [Compound P-60]
OUTPUT: 4.39

INPUT: Name the reported pKi value associated with the molecule Cc1cc(N)nc(CC2CNCC2NCCNCc2cccc(C(F)(F)F)c2)c1.Cl.Cl.Cl.Cl (racemic) [Compound P-52]
OUTPUT: 3.94

INPUT: Name the reported pKi value associated with the molecule Cc1cc(N)nc(CC2CNCC2N(C)CCNCc2ccc(Cl)cc2)c1 (racemic) [Compound P-64]
OUTPUT: 3.90

INPUT: Name the reported pKi value associated with the molecule Cc1cc(N)nc(C[C@H]2CNC[C@H]2NCCNCc2ccc(Cl)cc2Cl)c1.Cl.Cl.Cl.Cl (racemic) [Compound P-61]
OUTPUT: 4.52

INPUT: Name the reported pKi value associated with the molecule Cc1cc(N)nc(CC2CNCC2NCCNCc2ccc(Cl)c(Cl)c2)c1.Cl.Cl.Cl.Cl (racemic) [Compound P-65]
OUTPUT: 4.20

INPUT: Name the reported pKi value associated with the molecule Cc1cc(N)nc(C[C@@H]2CNC[C@@H]2NCCOCCc2cccc(F)c2)c1 (racemic) [Compound P-78]
OUTPUT: 4.70

INPUT: Name the reported pKi value associated with the molecule Cc1cc(N)nc(C[C@H]2CNC[C@H]2NCCNCc2ccc(C(F)(F)F)cc2)c1.Cl.Cl.Cl.Cl (racemic) [Compound P-50]
OUTPUT: 4.07

INPUT: Name the reported pKi value associated with the molecule Cc1cc(N)nc(CC2CNCC2NCCNCCc2ccc(F)cc2)c1.Cl.Cl.Cl.Cl (racemic) [Compound P-70]
OUTPUT: 4.75

INPUT: Name the reported pKi value associated with the molecule Cc1cc(N)nc(C[C@H]2CNC[C@@H]2NCCNCc2ccc(Cl)cc2Cl)c1.Cl.Cl.Cl.Cl (racemic) [Compound P-66]
OUTPUT: 4.12

INPUT: Name the reported pKi value associated with the molecule Cc1cc(N)nc(C[C@H]2CNC[C@@H]2NCCNCCc2ccc(F)cc2)c1.Cl.Cl.Cl.Cl (racemic) [Compound P-72]
OUTPUT: 4.36

INPUT: Name the reported pKi value associated with the molecule Cc1cc(N)nc(C[C@H]2CNC[C@H]2NCCNCc2ccc(F)cc2)c1.Cl.Cl.Cl.Cl (racemic) [Compound P-51]
OUTPUT: 3.89

INPUT: Name the reported pKi value associated with the molecule Cc1cc(N)nc(CC2CNCC2NCC(C)NCc2ccc(Cl)cc2)c1.Cl.Cl.Cl.Cl (racemic) [Compound P-68]
OUTPUT: 4.78

INPUT: Name the reported pKi value associated with the molecule Cc1cc(N)nc(C[C@H]2CNC[C@H]2NC(=O)CNCCc2cccc(F)c2)c1.Cl.Cl.Cl (racemic) [Compound P-77, trihydrochloride]
OUTPUT: 4.59

INPUT: Name the reported pKi value associated with the molecule Cc1cc(N)nc(CC2CNCC2N(C)CCN(C)CCc2cccc(F)c2)c1.Cl.Cl.Cl.Cl (racemic) [Compound P-74]
OUTPUT: 4.31

INPUT: Name the reported pKi value associated with the molecule Cc1cccc(CNCCN[C@@H]2CNC[C@@H]2Cc2cc(C)cc(N)n2)c1.Cl.Cl.Cl.Cl (racemic) [Compound P-53]
OUTPUT: 4.14

INPUT: Name the reported pKi value associated with the molecule Cc1cc(N)nc(C[C@H]2CNC[C@H]2NC[C@H](C)NCc2ccc(Cl)cc2)c1.Cl.Cl.Cl.Cl (racemic) [Compound P-63]
OUTPUT: 4.40

INPUT: Name the reported pKi value associated with the molecule Cc1cc(N)nc(C[C@H]2CNC[C@@H]2N(C)CCNCc2ccc(Cl)cc2)c1 (racemic) [Compound P-69]
OUTPUT: 4.24

INPUT: Name the reported pKi value associated with the molecule Cc1cc(N)nc(C[C@H]2CNC[C@@H]2NCCNCc2ccc(F)cc2)c1.Cl.Cl.Cl.Cl (racemic) [Compound P-57]
OUTPUT: 4.10

INPUT: Name the reported pKi value associated with the molecule Cc1cc(N)nc(C[C@H]2CNC[C@H]2N(C)CCNCCc2cccc(F)c2)c1.Cl.Cl.Cl.Cl (racemic) [Compound P-75]
OUTPUT: 4.03

INPUT: Name the reported pKi value associated with the molecule Cl.Cl.Cl.Cl.Nc1nc(CC2CNCC2NCCNCc2ccc(Cl)cc2)cs1 (racemic) [Compound P-82]
OUTPUT: 5.52

INPUT: Name the reported pKi value associated with the molecule Cc1cc(N)nc(CC2CNCC2NCCNCc2cccc(C(F)(F)F)c2)c1.Cl.Cl.Cl.Cl (racemic) [Compound P-58]
OUTPUT: 3.96

INPUT: Name the reported pKi value associated with the molecule Cc1cc(N)nc(C[C@H]2CNC[C@H]2OCCNC(=O)Cc2cccc(F)c2)c1.Cl.Cl (racemic) [Compound P-80, dihydrochloride]
OUTPUT: 4.07

INPUT: Name the reported pKi value associated with the molecule Cc1cccc(CNCCN[C@H]2CNC[C@@H]2Cc2cc(C)cc(N)n2)c1.Cl.Cl.Cl.Cl (racemic) [Compound P-59]
OUTPUT: 3.70

---

Endpoint: pIC50. System: rat nNOS (Rattus norvegicus, UniProt P29476). Items follow.
# pIC50: negative log10 of molar concentration; output just the value

Check out these entries, answers already filled in.
Nc1cccc(CC2CNCC2NC2CCN(Cc3ccccc3)C2)n1 (centres unmarked) [Compound P-39]: 3.71
Nc1cccc(CC2CNCC2NCC(N)Cc2ccccc2)n1 (racemic) [Compound P-17]: 3.75
Nc1cccc(CC2CNCC2NC2CCNC2)n1 (racemic) [Compound P-34]: 4.96
Cl.Cl.Nc1cccc(CC2CNCC2O)n1 (racemic): 4.22
CN(C)CCNC1CNCC1Cc1cccc(N)n1 (racemic) [Compound P-30]: 4.54
Nc1cccc(CC2CNCC2NC2CCNC2)n1 (racemic) [Compound P-19]: 3.74

INPUT: Query for rat nNOS (Rattus norvegicus, UniProt P29476): what pIC50 does the record show for Nc1cccc(CC2CNCC2NC2CCN(Cc3ccccc3)C2)n1 (centres unmarked) [Compound P-36] ?
OUTPUT: 4.54

INPUT: Query for rat nNOS (Rattus norvegicus, UniProt P29476): what pIC50 does the record show for Cl.Cl.Cl.Nc1cccc(CC2CN(Cc3ccccc3)CC2NCCCO)n1 (racemic) ?
OUTPUT: 2.58

INPUT: Query for rat nNOS (Rattus norvegicus, UniProt P29476): what pIC50 does the record show for Cl.Cl.Cl.Nc1cccc(C[C@H]2CN(Cc3ccccc3)C[C@@H]2NCCCO)n1 (racemic) ?
OUTPUT: 2.78

INPUT: Query for rat nNOS (Rattus norvegicus, UniProt P29476): what pIC50 does the record show for Nc1cccc(CC2CNCC2NCC(N)Cc2ccccc2)n1 (racemic) [Compound P-32] ?
OUTPUT: 4.70

INPUT: Query for rat nNOS (Rattus norvegicus, UniProt P29476): what pIC50 does the record show for Cl.Cl.Cl.Cl.Nc1cccc(CC2CNCC2NCC2CCCN2)n1 (centres unmarked) [Compound P-23] ?
OUTPUT: 4.01

INPUT: Query for rat nNOS (Rattus norvegicus, UniProt P29476): what pIC50 does the record show for Cl.Cl.Cl.Cl.Nc1cccc(CC2CNCC2NCC2CCCN2)n1 (centres unmarked) [Compound P-24] ?
OUTPUT: 3.90

INPUT: Query for rat nNOS (Rattus norvegicus, UniProt P29476): what pIC50 does the record show for Cl.Cl.Cl.Cl.NCCN1CC(Cc2cccc(N)n2)C(NCCCc2ccccc2)C1 (racemic) ?
OUTPUT: 3.60

INPUT: Query for rat nNOS (Rattus norvegicus, UniProt P29476): what pIC50 does the record show for Nc1cccc(CC2CNCC2NC2CCN(Cc3ccccc3)C2)n1 (racemic) [Compound P-21] ?
OUTPUT: 3.67

INPUT: Query for rat nNOS (Rattus norvegicus, UniProt P29476): what pIC50 does the record show for Cl.Cl.Cl.Cl.NCCNC1CC(N)CC1Cc1cccc(N)n1 (racemic) ?
OUTPUT: 4.67

INPUT: Query for rat nNOS (Rattus norvegicus, UniProt P29476): what pIC50 does the record show for Nc1cccc(C[C@H]2CNC[C@@H]2NCCNCc2ccccc2)n1 (racemic) ?
OUTPUT: 3.90

INPUT: Query for rat nNOS (Rattus norvegicus, UniProt P29476): what pIC50 does the record show for CN(C)CCNC1CNCC1Cc1cccc(N)n1 (racemic) [Compound P-15] ?
OUTPUT: 3.87

INPUT: Query for rat nNOS (Rattus norvegicus, UniProt P29476): what pIC50 does the record show for Cc1cc(N)nc(C[C@H]2CNC[C@H]2NCCN)c1.Cl.Cl.Cl.Cl (racemic) ?
OUTPUT: 6.08

INPUT: Query for rat nNOS (Rattus norvegicus, UniProt P29476): what pIC50 does the record show for Nc1cccc(C[C@H]2CNC[C@H]2NCCNCc2ccccc2)n1 (racemic) ?
OUTPUT: 4.99

INPUT: Query for rat nNOS (Rattus norvegicus, UniProt P29476): what pIC50 does the record show for Nc1cccc(CC2CNCC2NCC(N)Cc2ccccc2)n1 (racemic) [Compound P-16] ?
OUTPUT: 3.92

INPUT: Query for rat nNOS (Rattus norvegicus, UniProt P29476): what pIC50 does the record show for Cc1cc(N)nc(C[C@H]2CNC[C@@H]2NCCN)c1.Cl.Cl.Cl.Cl (racemic) ?
OUTPUT: 5.27

INPUT: Query for rat nNOS (Rattus norvegicus, UniProt P29476): what pIC50 does the record show for Cl.Cl.Cl.Nc1cccc(CC2CNCC2NCCCc2ccccc2)n1 (racemic) ?
OUTPUT: 3.94

INPUT: Query for rat nNOS (Rattus norvegicus, UniProt P29476): what pIC50 does the record show for Nc1cccc(CC2CNCC2NC2CCN(Cc3ccccc3)C2)n1 (centres unmarked) [Compound P-37] ?
OUTPUT: 3.18

INPUT: Query for rat nNOS (Rattus norvegicus, UniProt P29476): what pIC50 does the record show for Nc1cccc(CC2CNCC2NC2CCNC2)n1 (racemic) [Compound P-35] ?
OUTPUT: 4.93

INPUT: Query for rat nNOS (Rattus norvegicus, UniProt P29476): what pIC50 does the record show for Cl.Cl.Cl.Nc1cccc(C[C@H]2CNC[C@H]2NCCCc2ccccc2)n1 (racemic) ?
OUTPUT: 4.56
